- TARGET: Voltage-gated inwardly rectifying potassium channel KCNH2 (Homo sapiens) (UniProt Q12809)
- Sequence (Q12809 whole entry, looked up): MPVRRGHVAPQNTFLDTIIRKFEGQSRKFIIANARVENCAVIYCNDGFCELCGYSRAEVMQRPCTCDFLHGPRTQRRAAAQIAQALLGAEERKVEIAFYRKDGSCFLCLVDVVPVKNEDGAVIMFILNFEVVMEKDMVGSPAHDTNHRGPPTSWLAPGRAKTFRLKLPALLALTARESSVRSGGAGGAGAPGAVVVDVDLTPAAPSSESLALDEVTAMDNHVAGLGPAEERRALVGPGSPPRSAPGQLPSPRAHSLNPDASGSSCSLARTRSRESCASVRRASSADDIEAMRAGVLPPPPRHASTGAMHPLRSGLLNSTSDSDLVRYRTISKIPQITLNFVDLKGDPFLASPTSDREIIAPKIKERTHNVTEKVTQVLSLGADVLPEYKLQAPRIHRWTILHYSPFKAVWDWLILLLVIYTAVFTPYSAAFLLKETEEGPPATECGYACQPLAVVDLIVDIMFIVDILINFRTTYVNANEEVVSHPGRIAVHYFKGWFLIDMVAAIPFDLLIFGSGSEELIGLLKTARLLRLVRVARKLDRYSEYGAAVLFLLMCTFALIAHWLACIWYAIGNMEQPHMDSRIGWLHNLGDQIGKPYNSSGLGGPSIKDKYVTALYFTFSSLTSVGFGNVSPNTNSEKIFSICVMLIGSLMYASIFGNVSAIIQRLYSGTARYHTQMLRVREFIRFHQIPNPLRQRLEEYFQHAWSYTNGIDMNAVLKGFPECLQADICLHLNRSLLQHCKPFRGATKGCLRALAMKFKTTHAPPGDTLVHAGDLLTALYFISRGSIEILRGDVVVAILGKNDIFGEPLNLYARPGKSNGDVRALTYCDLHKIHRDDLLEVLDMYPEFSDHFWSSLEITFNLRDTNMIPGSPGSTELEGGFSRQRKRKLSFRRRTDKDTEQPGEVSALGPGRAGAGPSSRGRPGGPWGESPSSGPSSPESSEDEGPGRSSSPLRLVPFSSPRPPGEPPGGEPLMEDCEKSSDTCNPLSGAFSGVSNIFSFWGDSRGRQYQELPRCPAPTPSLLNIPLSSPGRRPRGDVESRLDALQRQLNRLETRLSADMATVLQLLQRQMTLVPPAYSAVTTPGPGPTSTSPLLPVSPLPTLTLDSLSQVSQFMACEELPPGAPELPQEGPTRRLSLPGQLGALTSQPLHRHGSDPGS
- ASSAY_OVERVIEW: KCNH2 potassium channel function modulators, cell-based (AID 376);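 also: 0% = buffer alone and 100% = reference blocker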
- CONDITION_SUMMARY: hERG-expressing cells, channel activity single-concentration screen; concentration not given here
Among all 2,000 compounds or so, about 250 (12%) were called active. For the sample, actives were picked, then their nearest neighbours and some compounds at random.
Collected hERG blockade values appear next to each entry.

[
  {
    "COMPOUND": "OCCCN=C1CCCCC1",
    "hERG blockade / %": 13.3
  },
  {
    "COMPOUND": "c1ccc(C(CCN2CC3CCC(CC3)C2)c2ccccc2)cc1",
    "hERG blockade / %": 56.9
  },
  {
    "COMPOUND": "NC(N)=Nc1ccc(-c2ccc(N=C(N)N)cc2)cc1",
    "hERG blockade / %": -0.0188
  },
  {
    "COMPOUND": "CCc1ccc2c(c1)N(CC(C)CN(C)C)c1ccccc1S2 (configuration not stated)",
    "hERG blockade / %": 25.4
  },
  {
    "COMPOUND": "CCC(=O)Nc1ncnc2ncn(C(=O)CC)c12",
    "hERG blockade / %": 12.6
  },
  {
    "COMPOUND": "COc1ccc(C=NNC(=O)O)cc1",
    "hERG blockade / %": -2.22
  },
  {
    "COMPOUND": "Nc1[nH]c(=S)[nH]c(=O)c1N=Nc1c(Br)cc(S(N)(=O)=O)cc1Br",
    "hERG blockade / %": 6.92
  },
  {
    "COMPOUND": "c1ccc(C(CCN2CCCC2)c2ccccn2)cc1 (configuration not stated)",
    "hERG blockade / %": 3.48
  },
  {
    "COMPOUND": "Oc1ccccc1CNCc1ccccc1O",
    "hERG blockade / %": 23.5
  },
  {
    "COMPOUND": "O=C(O)c1ccc(CNCc2ccccc2)cc1",
    "hERG blockade / %": -8.86
  },
  {
    "COMPOUND": "O=C(O)c1cc(N=Cc2ccccc2O)cc(C(=O)O)c1",
    "hERG blockade / %": -2.64
  },
  {
    "COMPOUND": "Oc1ccc(CNCc2ccccc2)c2cccnc12",
    "hERG blockade / %": 7.55
  },
  {
    "COMPOUND": "OCC1OC(N2CCN(C3OC(CO)C(O)C(O)C3O)CC2)C(O)C(O)C1O (configuration not stated)",
    "hERG blockade / %": -5.49
  },
  {
    "COMPOUND": "NC(=[SH+])[N-]N=Cc1ccccn1.O=S(=O)([O-])O.[Fe]",
    "hERG blockade / %": 8.22
  },
  {
    "COMPOUND": "C=CCSc1nc2ccccc2c(=O)n1Cc1ccco1",
    "hERG blockade / %": 3.62
  },
  {
    "COMPOUND": "NCOC(=O)Cc1ccc(Br)cc1",
    "hERG blockade / %": -16.9
  },
  {
    "COMPOUND": "CC(C)CCNc1ncnc2[nH]ncc12",
    "hERG blockade / %": 0.816
  },
  {
    "COMPOUND": "CC(=N[N-]C(=[SH+])SCc1ccccc1)c1ccccn1.[Cl][Cu]",
    "hERG blockade / %": 3.22
  },
  {
    "COMPOUND": "O=C1C=CC(=Nc2cccc3c(N=C4C=CC(=O)O4)cccc23)O1",
    "hERG blockade / %": -12
  },
  {
    "COMPOUND": "CC(=NNS(=O)(=O)c1ccc(C)cc1)P(=O)(O)O",
    "hERG blockade / %": 15.5
  },
  {
    "COMPOUND": "COc1ccc(N(CC(=O)O)N=O)cc1",
    "hERG blockade / %": 1.49
  },
  {
    "COMPOUND": "CCCS(=O)(=O)O",
    "hERG blockade / %": -0.642
  },
  {
    "COMPOUND": "Cc1c(Cl)c(S(N)(=O)=O)cc(S(N)(=O)=O)c1NC(=O)c1ccc(Cl)cc1",
    "hERG blockade / %": 12.5
  },
  {
    "COMPOUND": "O=C(O)c1cscc1Cc1cccs1",
    "hERG blockade / %": -9.17
  },
  {
    "COMPOUND": "CC1CCC2C(C)C3C(CC4C5CC=C6CC(O)CCC6(C)C5CC(O)C43C)N2C1 (configuration not stated)",
    "hERG blockade / %": -3.2
  },
  {
    "COMPOUND": "Cc1cn(C2CC(N=[N+]=[N-])C(CO)O2)c(=O)[nH]c1=O (configuration not stated)",
    "hERG blockade / %": 9.12
  },
  {
    "COMPOUND": "CC(C)CC(N)C(=O)O (configuration not stated)",
    "hERG blockade / %": 6.02
  }
]

// provenance: PubChem BioAssay AID376
